experimental-protocol: rapamycin-like changes in RPL19A-GFP expression – cell-based, S. cerevisiae, multiplex flow cytometry, primary screen (AID 1862);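 further: lower values mimic rapamycin by blocking the RPL19A rise seen in DMSO cells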
measurement-context: S. cerevisiae RPL19A-GFP strain, flow cytometry fluorescence, 3 h; at 10 µM; active compounds read low
Results filed as inconclusive are left out.
observable: percent of DMSO control GFP (%)
Just the number please, in %, no unit attached.

// known answers, use as guide
{"columns": ["molecule", "percent of DMSO control GFP / %"],
 "data": [
  ["COc1cc(OC)cc(C(C)=O)c1", 96],
  ["CCOc1ccc2nc(N/C(N)=N/S(C)(=O)=O)nc(C)c2c1", 90.6],
  ["CCC(NC(C)C)C(O)c1ccc(O)c(O)c1 (stereo not given)", 103],
  ["COc1ccc(C2NC(=O)c3ccccc3O2)c(OC)c1OC (stereo not given)", 105],
  ["Cn1c(=O)c2c(ncn2CCO)n(C)c1=O", 102],
  ["COc1cc2c(cc1OC)-c1nnc(C)n1C(C)(C)C2", 100],
  ["CN(C)CCOC(=O)C(c1ccccc1)C1(O)CCCC1 (stereo not given)", 92],
  ["COc1ccccc1C(=O)Nc1cc2cc(Br)ccc2oc1=O", 101],
  ["NC(N)=N/N=C/c1ccc(OS(=O)(=O)c2ccccc2)cc1", 102],
  ["COC(=O)c1ccccc1NC(=O)c1ccc(COc2ccc3c(c2)CCC3)cc1", 99.6]
]}

Recorded percent of DMSO control GFP (molecule CC1=C(C)C(=O)C(CCCCC#CCCCC#CCO)=C(C)C1=O ): 99.3

Recorded percent of DMSO control GFP (molecule Cn1c(=O)[nH]c(=O)c2c1nc(NCc1ccco1)n2CCCc1ccccc1 ): 101

Recorded percent of DMSO control GFP (molecule CC(C)=CCC/C(C)=C/CC/C(C)=N/O ): 97.4

Source: PubChem BioAssay
